The origin of these recorded values is patent US20230087118A1.

Target: IRAK4 (Homo sapiens)
Assay: 2-hour 10 μM ATP Biochemical Assay (MesoScale Detection format; IRAK4 phosphorylation of biotin labeled IRAK1 activation loop peptide)
Settings: 0.1 nM IRAK4
pIC50: −log10 of the molar value.
parameter: pIC50

Consider the following illustrative entries.
molecule | assay-system | parameter | recorded-measurement
COc1cc2nc(C3CCOCC3)cn2cc1C(=O)Nc1cccc(C(F)(F)F)c1 | IRAK4 (Homo sapiens) | pIC50 | 8.10
COc1cc2nc(C3CCOCC3)cn2cc1C(=O)Nc1cccc2c1OCCC2 | IRAK4 (Homo sapiens) | pIC50 | 9.00
COc1cc2nc(C3CCOCC3)cn2cc1C(=O)Nc1cccc(Cl)c1C | IRAK4 (Homo sapiens) | pIC50 | 8.15
COc1cc2nc(C3CCOCC3)cn2cc1C(=O)Nc1cccc(CF)c1 | IRAK4 (Homo sapiens) | pIC50 | 8.10
COc1cc2nc(C3CCOCC3)cn2cc1C(=O)Nc1cc(F)cc(C(F)F)c1 | IRAK4 (Homo sapiens) | pIC50 | 7.92
COc1cc2nc(C3CCOCC3)cn2cc1C(=O)NC1CCCC(C)C1C (stereo not drawn) | IRAK4 (Homo sapiens) | pIC50 | 6.13
COc1cc2nc(C3CCOCC3)cn2cc1C(=O)Nc1scnc1C | IRAK4 (Homo sapiens) | pIC50 | 7.37

[P] COc1cc2nc(C3CCOCC3)cn2cc1C(=O)Nc1cccc(C(F)F)c1
[Q] COc1cc2nc(C3CC34CCOC4)cn2cc1C(=O)Nc1cccc(C(F)(F)F)n1 (stereo not drawn)
Q: Consider entries P and Q . Which has the numerically lower pIC50? Please respond with the label that marks your chosen entry.
Result: Q

* * *

Molecular target: IRAK4 (Homo sapiens)
Test: biochemical
pIC50: −log10 of the molar value.
parameter: pIC50

compound | pIC50
CCOc1nc(C(=O)Nc2cccc(C(F)F)n2)cn2cc(C34CCC(C)(C3)OC4)nc12 (stereo not shown) [Example 274] | 8.80

[A] COc1cc2nc(C3CCOCC3)cn2cc1C(=O)Nc1ccn(CC2CC2)n1 [Example 184]
[B] CCn1ccc(NC(=O)c2cn3cc(C45CCC(C)(C4)OC5)nc3cc2OC2CCC2)n1 (stereo not shown) [Example 533]
[C] CCOc1nc(C(=O)Nc2ccn(C(F)F)n2)cn2cc(C34COC(C)(C3)C4)nc12 [Example 490]
Q: rank_up(items): orders items by reported pIC50 in ascending numerical order. Your answer should be the labels, listed in the requested order.
Result: A, C, B
(A: 6.68, C: 8.19, B: 8.43)

* * *

Target: IRAK4 (Homo sapiens, UniProt Q9NWZ3)
Sequence (Q9NWZ3 whole entry): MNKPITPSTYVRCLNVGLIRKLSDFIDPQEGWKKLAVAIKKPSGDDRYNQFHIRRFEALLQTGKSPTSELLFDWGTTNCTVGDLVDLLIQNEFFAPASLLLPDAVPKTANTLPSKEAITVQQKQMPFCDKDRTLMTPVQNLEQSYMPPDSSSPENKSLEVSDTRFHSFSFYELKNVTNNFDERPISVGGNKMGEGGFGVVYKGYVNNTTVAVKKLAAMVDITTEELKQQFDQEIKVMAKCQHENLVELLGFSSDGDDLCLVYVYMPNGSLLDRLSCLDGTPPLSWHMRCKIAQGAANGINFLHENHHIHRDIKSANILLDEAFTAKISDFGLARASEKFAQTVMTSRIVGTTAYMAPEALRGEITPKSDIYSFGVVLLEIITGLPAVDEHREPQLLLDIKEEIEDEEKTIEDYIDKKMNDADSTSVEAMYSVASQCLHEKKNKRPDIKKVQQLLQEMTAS
Experiment: biochemical
parameter: IC50 (nM)

compound | IC50, nM
Cn1cccc(NC(=O)c2cn3cc(C45CCC(C)(C4)OC5)nc3cc2OC2CCCC2)c1=O (stereo not shown) [Example 558] | 1.1
Cn1ccc(NC(=O)c2cn3cc(C45COC(C)(C4)C5)nc3nc2OCC2CC2)n1 [Example 370] | 1.6
CCOc1nc(C(=O)Nc2cccc(Cl)c2)cn2cc(C34COC(C)(C3)C4)nc12 [Example 495] | 8.8
CC(C)Oc1nc2nc(C34COC(C)(C3)C4)cn2cc1C(=O)Nc1cc(F)n(C)n1 [Example 360] | 11.1

[P] COc1cc2nc(C3CCOCC3)cn2cc1C(=O)Nc1cnn(C)c1C [Example 194]
[Q] CC1CC(Oc2cc3nc(C45COC(C)(C4)C5)cn3cc2C(=O)Nc2ccn(C)n2)C1 (stereo not shown) [Example 549]
Q: Consider entries P and Q . Which has the numerically lower IC50? Please respond with the label that marks your chosen entry.
Result: Q
(Q: 3.4 nM, P: 624 nM)

[I] CC12CC(c3cn4cc(C(=O)Nc5cccc(C(F)F)n5)nc(OC5CCC5)c4n3)(CO1)C2 [Example 345]
[II] CC(C)Oc1nc2nc(C34COC(C)(C3)C4)cn2cc1C(=O)Nc1cccc(C(F)F)c1 [Example 386]
Q: Return label of the item with the larger IC50. Candidates: I , II . Please respond with the label that marks your chosen entry.
Result: I

[P] Cn1ccc(NC(=O)c2cn3cc([C@]45CC[C@](C)(C4)OC5)nc3cc2OC2CCC2)n1 (single isomer, unassigned) [Example 611]
[Q] CC(C)Oc1cc2nc(C34CCC(C)(C3)OC4)cn2cc1C(=O)Nc1cccc(C(F)(F)F)c1F (stereo not shown) [Example 502]
Q: Consider entries P and Q . Which has the numerically lower IC50? Please respond with the label that marks your chosen entry.
Result: Q

[P] CC(C)Oc1cc2nc(C34COC(C)(C3)C4)cn2cc1C(=O)Nc1cccc2cn(C)nc12 [Example 318]
[Q] CCc1ncsc1NC(=O)c1cn2cc(C34CCC(C)(C3)OC4)nc2cc1OC(C)C (stereo not shown) [Example 511]
[R] CC(C)Oc1cc2nc(C34CCC(C)(C3)OC4)cn2cc1C(=O)Nc1cnn2cccnc12 (stereo not shown) [Example 417]
Q: List these items ordered by IC50, big to small. Your answer should be the labels, listed in the requested order.
Result: Q, P, R
